The measured values listed here are drawn from paper PMC12431657.

Readings of 229E Inhibition rate for the listed molecules
# System: HCoV-229E
# Design: species or system Huh-7; HTS, protection from HCoV-229E induced cell death, luminescent cell viability (CellCounting-Lite 2.0), inhibition rate
# statedConditions: 24 h post infection, 1 h compound pre-incubation, 10 µM, inhibitor, 229E Inhibition rate, 24 h
The whole screen tested about 3,300 compounds, of which about 95 (3%) showed an effect of 50% or more. Only a selection was taken, and strong results are over-represented in it overall.
Report only the number, with the unit % understood.

Solved entries:
# molecule, outputUnit, 229E Inhibition rate
rows = [
    ("O=C(O)[C@H](O)[C@@H](O)C(=O)O [L-Tartaric acid]", "%", 17.2),
    ("CC1(C)[C@@H](O[C@H]2O[C@H](C(=O)O)[C@@H](O)[C@H](O)[C@H]2O[C@@H]2O[C@H](C(=O)O)[C@@H](O)[C@H](O)[C@H]2O)CC[C@]2(C)[C@H]3C(=O)C=C4[C@@H]5C[C@@](C)(C(=O)O)CC[C@]5(C)CC[C@@]4(C)[C@]3(C)CC[C@@H]12 [Diammonium Glycyrrhizinate]", "%", 0),
]

Next up:
Form: item O=C(O)/C=C/c1ccccc1 [Cinnamic acid] ; test system HCoV-229E; 229E Inhibition rate: 21

* * *

# System: HCoV-229E
# Design: species or system Huh-7; HTS, protection from HCoV-229E induced cell death, luminescent cell viability (CellCounting-Lite 2.0), inhibition rate
# statedConditions: 24 h post infection, 1 h compound pre-incubation; 10 µM; inhibitor
About 95 (3%) of roughly 3,300 compounds showed an effect of 50% or more. This is one part of a sample in which strong results are shown more often than they occur.
metricName: 229E Inhibition rate (%)
The response must be a number in % with no trailing unit.

# compound, 229E Inhibition rate (%)
rows = [
    ("COC(=O)C1=CO[C@@H](C)[C@@H]2CN3CC[C@@]4(C(=O)Nc5ccccc54)[C@@H]3C[C@H]12 [Isopteropodine]", 13.3),
]

The reported 229E Inhibition rate value, HCoV-229E, for c1cc2c(cc1[C@H]1OC[C@@H]3[C@H]1CO[C@H]3c1ccc3c(c1)OCO3)OCO2 [(-)-Asarinin] reads 9.2

The value of 229E Inhibition rate recorded for C=C[C@H]1CN2CC[C@H]1C[C@@H]2[C@@H](O)c1ccnc2ccccc12 [Cinchonine] when tested on HCoV-229E reads 53.6

Record O=C(/C=C/c1ccc(O)c(O)c1)O[C@H]1[C@H](O)C[C@](O)(C(=O)O)C[C@H]1O [Cryptochlorogenic acid] has HCoV-229E 229E Inhibition rate equal to 7.4

# lookup: C=C[C@H]1CN2CC[C@H]1C[C@H]2[C@H](O)c1ccnc2ccccc12 [Cinchonidine] on HCoV-229E, 229E Inhibition rate = 13.4

The measured 229E Inhibition rate that C[C@H](CO[C@@H]1O[C@H](CO)[C@@H](O)[C@H](O)[C@H]1O)[C@H]1CC[C@@]2(CC[C@]3(C)[C@H](CC[C@@H]4[C@@]5(C)CC[C@H](O[C@@H]6O[C@H](CO)[C@@H](O)[C@H](O)[C@H]6O[C@@H]6O[C@H](CO)[C@@H](O)[C@H](O)[C@H]6O)[C@@](C)(CO)[C@@H]5CC[C@]43C)[C@H]2O)CO1 [Hosenkoside B] showed for HCoV-229E is 10.3

Case CC1=C(O)C(=O)C(C)O1 (stereo not shown) [Furaneol] , HCoV-229E, 229E Inhibition rate recorded as 17.8

HCoV-229E 229E Inhibition rate of O=Cc1cccs1 [2-Thiophenecarboxaldehyde] is 6.5

Test item C[C@@H]1C(=O)O[C@H]2[C@H](O)[C@@]34[C@H]5C[C@@H](C(C)(C)C)[C@]36[C@@H](OC(=O)[C@@H]6O)O[C@@]4(C(=O)O5)[C@@]12O [Ginkgolide B] ; HCoV-229E; reported 229E Inhibition rate was 25.6

Field 229E Inhibition rate (HCoV-229E), entry CC1=C2[C@@H](OC1=O)[C@H](O)[C@]13[C@H]4C[C@@H](C(C)(C)C)[C@]15[C@@H](OC(=O)[C@@H]5O)O[C@@]23C(=O)O4 [Ginkgolide K] : 62

Note to self: 229E Inhibition rate of C=C(C)[C@@H]1CC=C(CO)CC1 [(S)-(−)-Perillyl alcohol] with HCoV-229E was 9.9

Lab note: compound O=C1CC(C(=O)O)c2c1oc(=O)c1cc(O)c(O)c(O)c21 (stereo not shown) [Brevifolincarboxylic acid] tested on HCoV-229E; recorded 229E Inhibition rate was 6.4

Measured 229E Inhibition rate (HCoV-229E), entry c1cc2c(cc1O[C@H]1OC[C@H]3[C@@H]1CO[C@@H]3c1ccc3c(c1)OCO3)OCO2 [Sesamolin] : 62.2

* * *

229E Inhibition rate values for the compounds below.
# Tested on: HCoV-229E
# Design: species or system Huh-7; HTS, protection from HCoV-229E induced cell death, luminescent cell viability (CellCounting-Lite 2.0), inhibition rate
# statedConditions: 24 h post infection, 1 h compound pre-incubation; 10 µM; inhibitor
In all, about 3,300 compounds went through this assay and about 95 (3%) showed an effect of 50% or more. The sample as a whole holds a higher share of strong results than the screen did.
Field format: number, assumed %, no unit text.

# compound, 229E Inhibition rate [%]
rows = [
    ("COc1cc(C(C)=O)ccc1O [Apocynin]", 5.3),
    ("C[C@@H]1C[C@H]2OC(=O)[C@@]3(C)CCC[C@@](C)([C@@H]23)[C@@]1(O)CCc1ccoc1 [Marrubiin]", 59.8),
]

Kindly consider the entry below.
With HCoV-229E as the test system, CC(C)=CCC[C@](C)(O[C@@H]1O[C@H](CO)[C@@H](O)[C@H](O)[C@H]1O)[C@H]1CC[C@]2(C)[C@@H]1[C@H](O)C[C@@H]1[C@@]3(C)C[C@@H](O)[C@H](O[C@@H]4O[C@H](CO)[C@@H](O)[C@H](O)[C@H]4O[C@@H]4O[C@H](CO)[C@@H](O)[C@H](O)[C@H]4O)C(C)(C)[C@@H]3CC[C@]12C [Gypenoside XLVI] showed 229E Inhibition rate of 10.6

* * *

# System: HCoV-229E
# Set-up: species or system Huh-7; HTS, protection from HCoV-229E induced cell death, luminescent cell viability (CellCounting-Lite 2.0), inhibition rate
# statedConditions: 24 h post infection, 1 h compound pre-incubation; 10 µM; inhibitor
About 95 (3%) of roughly 3,300 compounds showed an effect of 50% or more. The sample as a whole holds a higher share of strong results than the screen did.
metricName: 229E Inhibition rate
Note: a bare number is incomplete; add the unit.

Worked set:
# compound, recordedMeasurement
rows = [
    ("COc1cc2oc(-c3ccc(O)cc3)cc(=O)c2c(O)c1[C@@H]1O[C@H](CO)[C@@H](O)[C@H](O)[C@H]1O[C@@H]1O[C@H](CO)[C@@H](O)[C@H](O)[C@H]1O [Spinosin]", "16.9%"),
    ("Oc1cc(O)c2c(c1)O[C@H](c1cc(O)c(O)c(O)c1)[C@@H](O)C2 [(+)-Gallocatechin]", "54.1%"),
    ("O=C1CCCCC1=O [1,2-Cyclohexanedione]", "20.8%"),
]

Next:
So for O=C(O)Cc1ccccc1O [2-Hydroxyphenylacetic acid] , the logged 229E Inhibition rate turned out to be 12.4%
